src = patent US10189810B2

# IC50 per record follows
# Experimental System: Human thrombin (Homo sapiens, UniProt P00734)
# Construct: Thrombin (fIIa, the active form of prothrombin) is another serine protease; purchased Haematologic Technologies Inc
# Protocol Text: thrombin protease inhibition assay (chromogenic substrate S-2238)
# Type: biochemical
# Applied Conditions: 3 nM thrombin, 125 μM S-2238, 10 min pre-incubation, RT, read at 405 nm
Assay Metric: IC50

>>> measured_result("O=c1cccc(-c2cc(NCc3ccc(Cl)s3)[nH]n2)[nH]1")
"> 100 µM"
>>> measured_result("CC(C)(C)C(=O)n1nc(-c2cc(Br)cn(CC(=O)N3CCOCC3)c2=O)cc1NCc1ccc(Cl)s1")
"< 0.1 µM"
>>> measured_result("COCCn1ccc(-c2cc(NCc3ccc(Cl)s3)n(C(=O)C(C)(C)C)n2)cc1=O")
"< 0.1 µM"
>>> measured_result("O=C(c1ccsc1)n1nc(-c2cc[nH]c(=O)c2)cc1NCc1ccc(Cl)s1")
"< 0.1 µM"
>>> measured_result("CC(C)(C)C(=O)n1nc(-c2cc(Br)c[nH]c2=O)cc1NCc1ccc(Cl)s1")
"< 0.1 µM"
>>> measured_result("COc1ccccc1C(=O)n1nc(-c2c[nH]c(=O)c(Br)c2)cc1NCc1ccc(Cl)s1")
"0.1 to 1 µM"
>>> measured_result("COCCn1ccc(-c2cc(NCc3ccc(Cl)s3)n(C(=O)c3ccsc3)n2)cc1=O")
"< 0.1 µM"
>>> measured_result("O=c1cc(-c2cc(NCc3ccc(Cl)s3)[nH]n2)cc[nH]1")
"> 100 µM"
>>> measured_result("CC(C)(C)C(=O)n1nc(-c2cc(N3CCOCC3)c[nH]c2=O)cc1NCc1ccc(Cl)s1")
"< 0.1 µM"
>>> measured_result("Cc1c[nH]c(=O)c(-c2cc(NCc3ccc(Cl)s3)n(C(=O)c3ccoc3)n2)c1")
"< 0.1 µM"
>>> measured_result("CC(C)(C)C(=O)n1nc(-c2c[nH]c(=O)c(-c3ccccc3)c2)cc1NCc1ccc(Cl)s1")
"1 to 10 µM"
>>> measured_result("O=C(c1ccsc1)n1nc(-c2ccn(Cc3cccnc3)c(=O)c2)cc1NCc1ccc(Cl)s1")
"< 0.1 µM"
>>> measured_result("O=C(c1ccoc1)n1nc(-c2cc[nH]c(=O)c2)cc1NCc1ccc(Cl)s1")
"< 0.1 µM"
